Provide the recorded Kd for the entries that follow.
target: CXCL1_HUMAN (human, UniProt P09341 35-107); assay: BLI
Sequence (P09341 35-107): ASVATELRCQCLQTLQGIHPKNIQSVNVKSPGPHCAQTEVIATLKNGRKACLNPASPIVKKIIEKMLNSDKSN
Write the numeric value and append its unit.

Illustrative cases are given below, each with its answer.
binder	Kd
P1086_IXORI (other) GSKGQRASQVSETSITAEFCDTSCTQGTDKTWSGCSGDCFCVHVGNDTEGRCMRWDGDYPSAEEEE	11.4 nM
P942_IXORI (other) NQLSGPQSSANSNEAVFCDTNCTQGTDEAWSGCRGDCFCVYVGNSTEGRCMMLSGDFDYSTPGAED	3.09 nM

Could you now consider this next binder?
Q: Reported Kd for P1168_IXORI (other) GQDTDGKEKSDEYELFTVEYCGTNCTQLENGSWTACTGKNGTCRCFHENDKKVGLCLSTEYTDFSEYPDPNSEEIKAASPLP : what is it?
Ans: 5.91 nM

Cited source for all entries: patent US20200247855A1
